Where a name gives a salt, the structure may show the parent alone.
Quick reference for melting point among some molecules

INPUT: Give reported melting point value for O=C(C1CCCCC1)C(CCN1CC=C(c2csc3ccccc23)CC1)c1ccccn1 (centres unmarked) (as salt: oxalate)
OUTPUT: 208 to 210 °C

----------
Where a name gives a salt, the structure may show the parent alone.
Measured Attribute: melting point

Check out these entries, answers already filled in.
* OC(C1CCCCC1)C(CCN1CC=C(c2cc3ccccc3s2)CC1)c1ccccn1 (single isomer, unassigned) (as salt: oxalate) | 210 to 212 °C
* O=C(C1CCCCC1)C(CCN1CC=C(c2cc3ccccc3s2)CC1)c1ccccn1 (stereo not shown) (as salt: oxalate) | 228 to 230 °C
* OC(C1CCCCC1)C(CCN1CC=C(c2csc3ccccc23)CC1)c1ccccn1 (stereo not shown) (as salt: oxalate) | 100 to 107 °C
* OC(C1CCCCC1)C(CCN1CC=C(c2ccc3ccsc3c2)CC1)c1ccccn1 (stereo not shown) (as salt: oxalate) | 94 to 98 °C
* OC(C1CCCCC1)C(CCN1CC=C(c2ccc3sccc3c2)CC1)c1ccccn1 (single isomer, unassigned) (as salt: oxalate) | 190 to 192 °C

INPUT: Give reported melting point value for O=C(C1CCCCC1)C(CCN1CC=C(c2ccc3sccc3c2)CC1)c1ccccn1 (stereo not shown) (as salt: oxalate)
OUTPUT: 194 to 196 °C

INPUT: Give reported melting point value for O=C(C1CCCCC1)C(CCN1CC=C(c2ccc3ccsc3c2)CC1)c1ccccn1 (stereo not shown) (as salt: oxalate)
OUTPUT: 164 to 169 °C
